Measured pIC50 accompanies every entry in the list below.
Biological target: trypsin (Bos taurus, UniProt P00760)
Sequence (P00760 24-246): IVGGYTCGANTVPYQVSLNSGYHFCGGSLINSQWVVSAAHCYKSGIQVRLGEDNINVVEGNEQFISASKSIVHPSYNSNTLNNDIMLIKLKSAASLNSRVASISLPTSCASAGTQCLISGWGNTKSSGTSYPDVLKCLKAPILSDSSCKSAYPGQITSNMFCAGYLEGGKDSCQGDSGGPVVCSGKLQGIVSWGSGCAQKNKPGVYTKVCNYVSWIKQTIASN
Please express pIC50 as -log10 of the molar concentration.

N=C(N)NCCC[C@H](NC(=O)c1cccc2ccccc12)C(=O)N1CCC(c2ccccc2)CC1    3.40
COc1ccc2ccc(S(=O)(=O)N[C@@H](CCCNC(=N)N)C(=O)N3CCN(c4ccc(F)cc4)CC3)cc2c1    6.07
COc1ccc(S(=O)(=O)N[C@@H](CCCNC(=N)N)C(=O)N2CCC(c3ccccc3)CC2)c2ccccc12    5.66

As a next step, examine the compound that follows.
What value of pIC50 has been reported for the following compound? COc1ccc2ccc(S(=O)(=O)N[C@@H](CCCNC(=N)N)C(=O)N3CCC(c4ccccc4)CC3C(=O)O)cc2c1 (stereo partly shown)
6.40

----------
Target: trypsin (Bos taurus, UniProt P00760)
Sequence (P00760 24-246): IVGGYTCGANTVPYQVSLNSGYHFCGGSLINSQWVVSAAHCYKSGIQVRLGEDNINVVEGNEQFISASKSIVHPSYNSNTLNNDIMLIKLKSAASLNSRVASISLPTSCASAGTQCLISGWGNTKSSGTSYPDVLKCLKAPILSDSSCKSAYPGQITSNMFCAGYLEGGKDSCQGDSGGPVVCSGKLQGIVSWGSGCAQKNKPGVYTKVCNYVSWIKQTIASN
recorded metric: IC50 (µM)
The response must be a number in µM with no trailing unit.

Known IC50 results, listed for orientation:
COc1ccc2ccc(S(=O)(=O)N[C@@H](CCCNC(=N)N)C(=O)N3CCC(C(=O)Nc4ccccc4)CC3)cc2c1    3.4
COc1ccc2ccc(S(=O)(=O)N[C@@H](CCCNC(=N)N)C(=O)N3CCN(c4cccc(Cl)c4)CC3)cc2c1    0.38
COc1ccc(C2CCN(C(=O)[C@H](CCCNC(=N)N)NS(=O)(=O)c3ccc4ccc(OC)cc4c3)CC2)cc1    0.2

What value of IC50 has been reported for the following compound? COc1ccc2ccc(S(=O)(=O)N[C@@H](CCCNC(=N)N)C(=O)N3CCC(Cc4ccccc4)CC3)cc2c1
0.6

What value of IC50 has been reported for the following compound? COc1cc2c(S(=O)(=O)N[C@@H](CCCNC(=N)N)C(=O)N3CCC(c4ccccc4)CC3)cccc2cc1C(=O)O
450

What value of IC50 has been reported for the following compound? COc1ccc2ccc(S(=O)(=O)N[C@@H](CCCNC(=N)N)C(=O)N3CC[C@@H](c4ccccc4)C[C@@H]3C(=O)O)cc2c1
0.15

What value of IC50 has been reported for the following compound? N=C(N)NCCC[C@H](NS(=O)(=O)c1ccc2ccc(Cl)cc2c1)C(=O)N1CCC(c2ccccc2)CC1
1.1

What value of IC50 has been reported for the following compound? N=C(N)NCCC[C@H](NS(=O)(=O)c1cccc2c(Cl)cccc12)C(=O)N1CCC(c2ccccc2)CC1
2.5

What value of IC50 has been reported for the following compound? COc1ccc(N2CCN(C(=O)[C@H](CCCNC(=N)N)NS(=O)(=O)c3ccc4ccc(OC)cc4c3)CC2)cc1
2.8

What value of IC50 has been reported for the following compound? COc1ccc2ccc(S(=O)(=O)N[C@@H](CCCNC(=N)N)C(=O)N3CC[C@H](c4ccccc4)C[C@H]3C(=O)O)cc2c1
1.9

What value of IC50 has been reported for the following compound? CCOc1ccc2ccc(S(=O)(=O)N[C@@H](CCCNC(=N)N)C(=O)N3CCC(c4ccccc4)CC3)cc2c1
0.9

What value of IC50 has been reported for the following compound? COc1cccc2cccc(S(=O)(=O)N[C@@H](CCCNC(=N)N)C(=O)N3CCC(c4ccccc4)CC3)c12
87

What value of IC50 has been reported for the following compound? COc1cccc(C2CCN(C(=O)[C@H](CCCNC(=N)N)NS(=O)(=O)c3ccc4ccc(OC)cc4c3)CC2)c1
0.75

What value of IC50 has been reported for the following compound? COc1cc2ccc(S(=O)(=O)N[C@@H](CCCNC(=N)N)C(=O)N3CCC(c4ccccc4)CC3)cc2cc1OC
2.4
